These entries and their values trace back to patent US11591337B2.

biological target: mGlu5 receptor (Homo sapiens, UniProt P41594); construct: Human mGluR5 open reading frame (ORF), comprehensive of the stop codon, were cloned into the pcDNA4/TO/myc-His™ A vector; test: Functional activity at mGlu5 receptor as calcium fluorescence measurements; conditions: potentiation of mGlu5 activation at EC20 of the agonist (quisqualate or glutamate); read-out: positive allosteric activity EC50
Sequence (P41594 21-1212): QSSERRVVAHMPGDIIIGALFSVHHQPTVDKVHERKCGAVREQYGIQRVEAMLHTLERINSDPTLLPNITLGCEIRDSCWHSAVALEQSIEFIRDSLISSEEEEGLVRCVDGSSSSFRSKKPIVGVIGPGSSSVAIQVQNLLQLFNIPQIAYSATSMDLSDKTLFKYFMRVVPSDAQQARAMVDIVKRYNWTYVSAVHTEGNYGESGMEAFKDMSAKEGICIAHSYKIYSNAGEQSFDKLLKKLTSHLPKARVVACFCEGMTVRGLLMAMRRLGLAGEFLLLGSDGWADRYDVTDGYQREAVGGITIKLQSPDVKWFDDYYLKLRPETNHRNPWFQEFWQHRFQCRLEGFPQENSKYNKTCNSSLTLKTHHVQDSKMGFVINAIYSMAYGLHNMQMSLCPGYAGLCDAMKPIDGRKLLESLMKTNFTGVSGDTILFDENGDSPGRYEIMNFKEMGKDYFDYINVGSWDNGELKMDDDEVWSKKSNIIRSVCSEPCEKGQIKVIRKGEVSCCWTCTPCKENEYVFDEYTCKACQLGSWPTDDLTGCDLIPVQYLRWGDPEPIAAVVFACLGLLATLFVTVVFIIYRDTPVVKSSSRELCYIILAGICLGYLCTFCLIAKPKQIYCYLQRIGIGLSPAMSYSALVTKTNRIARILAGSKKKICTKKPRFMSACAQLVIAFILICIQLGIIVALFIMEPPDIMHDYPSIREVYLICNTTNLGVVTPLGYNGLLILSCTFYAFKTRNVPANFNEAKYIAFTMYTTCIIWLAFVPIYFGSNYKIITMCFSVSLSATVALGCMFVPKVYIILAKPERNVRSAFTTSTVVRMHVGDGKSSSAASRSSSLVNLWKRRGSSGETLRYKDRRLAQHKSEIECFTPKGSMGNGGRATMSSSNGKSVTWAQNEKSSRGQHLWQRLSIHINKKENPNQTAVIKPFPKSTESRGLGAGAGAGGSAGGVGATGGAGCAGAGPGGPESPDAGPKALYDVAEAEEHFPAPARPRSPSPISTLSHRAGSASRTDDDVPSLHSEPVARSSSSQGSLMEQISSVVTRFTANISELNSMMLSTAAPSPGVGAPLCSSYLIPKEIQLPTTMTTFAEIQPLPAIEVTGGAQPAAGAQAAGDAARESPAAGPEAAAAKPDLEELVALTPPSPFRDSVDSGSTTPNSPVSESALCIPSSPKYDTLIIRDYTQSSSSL
pEC50: −log10 of the molar value.
readout: pEC50

> print(dat)
                           substance.smiles  quantitative.result
1  O=C(c1cccc(Cl)c1)N1CCn2c(C#Cc3cccc(Cl)c3)nnc2C1                 6.53
